# Subject Of Test: panel of 255 wild-type kinases (Homo sapiens)
# Sequence (Q8TDX7 whole entry): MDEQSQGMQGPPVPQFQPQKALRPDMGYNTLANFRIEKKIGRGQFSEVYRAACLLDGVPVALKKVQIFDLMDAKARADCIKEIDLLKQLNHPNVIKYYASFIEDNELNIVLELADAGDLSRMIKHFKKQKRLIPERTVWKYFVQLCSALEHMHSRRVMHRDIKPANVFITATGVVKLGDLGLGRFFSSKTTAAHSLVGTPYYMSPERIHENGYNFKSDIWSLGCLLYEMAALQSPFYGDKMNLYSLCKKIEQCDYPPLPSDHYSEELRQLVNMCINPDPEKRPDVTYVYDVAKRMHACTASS
# Test Details: Kinase panel profiling at 1 µmol/L (MSA or IMAP), percentage inhibition
# Assay type: biochemical
# Test Conditions: NEK7; 1 µmol/L single concentration; read-out: %-inhibition, NEK7
Observed Property: inhibition at 1 µM

> print(dat)
                            chemical.string                           subject.of.test  measured
1  C[C@H](Nc1ncnc2nc[nH]c12)c1cc2cccc(Cl)c2c(=O)n1-c1ccccc1  panel of 255 wild-type kinases (Homo sapiens)   -0.791%
2  Cn1cnc2c(F)c(Nc3ccc(Br)cc3Cl)c(C(=O)NOCCO)cc21  panel of 255 wild-type kinases (Homo sapiens)   -0.844%
3  O=C(Nc1cnn2ccc(N3CCC[C@@H]3c3cc(F)ccc3F)nc12)N1CC[C@H](O)C1  panel of 255 wild-type kinases (Homo sapiens)    0.263%
4  Cc1cc(Nc2ncnc3ccc(NC4=NC(C)(C)CO4)cc23)ccc1Oc1ccn2ncnc2c1  panel of 255 wild-type kinases (Homo sapiens)    -5.58%

Every entry's value here was drawn from paper PMC9516332.
